These entries and their values trace back to the RNAGym collection of RNA variant scans (doi:10.1021/acssynbio.7b00057).

B1: Pistol ribozyme (parent)
chain: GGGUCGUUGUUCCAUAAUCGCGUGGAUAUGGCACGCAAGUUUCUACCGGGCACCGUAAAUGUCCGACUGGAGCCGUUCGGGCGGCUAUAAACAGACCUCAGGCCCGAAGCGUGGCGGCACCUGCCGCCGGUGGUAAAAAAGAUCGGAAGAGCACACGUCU

- Variants of: B1
- Experimental protocol: aptazyme ON/OFF ratio, guanine; higher = stronger switching; co-transcriptional cleavage with and without guanine
Quantity name: aptazyme ON/OFF ratio
One number for each entry.

// batch mode: one aptazyme ON/OFF ratio value per listed entry
1. U7G U8A G9C U10C U11A C12G C13G
2. U8C G9A U10G U11G C12A C13G
3. U8C G9C U10G C12U

1. 1.05
2. 1.14
3. 1.12

// batch mode: one aptazyme ON/OFF ratio value per listed entry
1. U7C G9C U10G C12G C13G
2. U8C G9A U11C C12A C13A

1. 1.07
2. 1.15
